System: NCI-H23
Experiment: NCI tumour cell line growth inhibition, 48 h
The source made the active and inactive calls. Rule as the data show it: active = GI50 up to about 1.1 µM and inactive = higher.
Entry note: the call must match one of active, inactive

Past entries and their recorded results:
[
  {
    "compound": "COC1=CC(=O)c2c(c(-c3csc(C)n3)cn2C)C1=O",
    "groupLabel": "inactive"
  },
  {
    "compound": "O=c1n(/N=C/c2ccccc2)c(=O)n2n1C1C=CC2CC1",
    "groupLabel": "inactive"
  },
  {
    "compound": "Cc1cccc2c(N)c3cccc(C(=O)NCC[N+](C)(C)Cc4sccc4[N+](=O)[O-])c3nc12",
    "groupLabel": "inactive"
  }
]

q: Just curious, what result did CCCC(=O)Nc1cc(/C=C/C(=O)N2CC(CCl)c3c2cc(OCc2ccccc2)c2[nH]cc(C)c32)n(C)c1 (centres undefined) get here?
a: active

q: Just curious, what result did COC(=O)C(=Cc1cc(OC)c(OC)c(OC)c1-c1cc2c(cc1C1(C)OCCS1)OCO2)C(=O)OC (centres undefined) get here?
a: inactive

q: Just curious, what result did CSc1nnc(CCC(=O)Nc2c(C)cccc2C)o1 get here?
a: inactive

q: Just curious, what result did CCOC(=O)/C(=N/Nc1ccc(Cl)cc1)N1C(=S)N(C)N=C(C)C=C1S get here?
a: inactive

q: Just curious, what result did O=C(Nc1cccc(C(F)(F)F)c1)C(=O)C(C(=O)c1ccc(Cl)c(Cl)c1)C1OC(=O)c2ccccc21 (centres undefined) get here?
a: inactive

q: Just curious, what result did Cc1cc(Br)cc(C)c1NC(=O)C(=O)C(C(=O)c1ccc2ccccc2c1)C1OC(=O)c2ccccc21 (centres undefined) get here?
a: inactive

* * *

Tested on: UACC-62
Test: NCI tumour cell line growth inhibition, 48 h
Activity calls are given as the source filed them. Rule as the data show it: active = GI50 up to about 1.1 µM and inactive = higher.
measurementLabel: GI50

Example cases with answers are listed next.
[
  {
    "compound": "Nc1nc(SCCC/C=C/I)nc2c1ncn2C1OC(CO)C(O)C1O (centres undefined)",
    "testSystem": "UACC-62",
    "GI50": "> 202 µM (inactive)"
  },
  {
    "compound": "O=C1CSC(c2cccc(Cl)c2)N1c1ccc(-c2ccc(-n3c(-c4ccccc4)nc4ccccc4c3=O)cc2)cc1 (centres undefined)",
    "testSystem": "UACC-62",
    "GI50": "31.4 µM (inactive)"
  },
  {
    "compound": "O=[N+]([O-])c1ccc(N/N=C2\\C=CCCC2)c([N+](=O)[O-])c1",
    "testSystem": "UACC-62",
    "GI50": "> 100 µM (inactive)"
  }
]

q: Look up and state reported GI50 for O=C1OC(=O)c2c1c(-c1ccccc1)nc1ccccc21
a: > 100 µM (inactive)

q: Look up and state reported GI50 for COc1nc2ncc([C@@H](OC(C)=O)[C@@H](COC(C)=O)OC(C)=O)nc2c(=O)[nH]1
a: > 100 µM (inactive)

q: Look up and state reported GI50 for C/C(=N\NC(=S)N1CCN(c2ccccn2)CC1)c1cccc(C)n1
a: 2.23 µM (inactive)

q: Look up and state reported GI50 for CSc1nnc(CCC(=O)Nc2c(C)cccc2C)o1
a: > 100 µM (inactive)

q: Look up and state reported GI50 for Clc1ccc(NCc2nnc(COc3ccc(OCc4nnc(CNc5ccc(Cl)cc5)o4)c(Cl)c3)o2)cc1
a: 4.66 µM (inactive)

q: Look up and state reported GI50 for Cc1ccc(S(=O)(=O)N/N=C/c2c(O)ccc3ccccc23)cc1
a: 18.2 µM (inactive)

q: Look up and state reported GI50 for CC(=O)OCC1OC(Sc2nc(-c3ccc(C)cc3)c(C#N)c(=O)n2C2OC(COC(C)=O)C(OC(C)=O)C(OC(C)=O)C2OC(C)=O)C(OC(C)=O)C(OC(C)=O)C1OC(C)=O (centres undefined)
a: > 100 µM (inactive)

q: Look up and state reported GI50 for COc1ccc2[nH]c(C(=O)N3CC(CCl)c4ccc(N)cc43)cc2c1 (centres undefined)
a: 0.141 µM (active)

q: Look up and state reported GI50 for CSc1ccc(/C=C2\N=C(c3ccccc3)N(/N=C/c3cc4cc(C)ccc4nc3Cl)C2=O)cc1
a: 15.6 µM (inactive)

Values compiled from ChEMBL document CHEMBL1201862.
